measurement-target: EP3 receptor (Homo sapiens, UniProt P43115)
Construct: purchased Millipore HTS092M
Sequence (P43115 1-390): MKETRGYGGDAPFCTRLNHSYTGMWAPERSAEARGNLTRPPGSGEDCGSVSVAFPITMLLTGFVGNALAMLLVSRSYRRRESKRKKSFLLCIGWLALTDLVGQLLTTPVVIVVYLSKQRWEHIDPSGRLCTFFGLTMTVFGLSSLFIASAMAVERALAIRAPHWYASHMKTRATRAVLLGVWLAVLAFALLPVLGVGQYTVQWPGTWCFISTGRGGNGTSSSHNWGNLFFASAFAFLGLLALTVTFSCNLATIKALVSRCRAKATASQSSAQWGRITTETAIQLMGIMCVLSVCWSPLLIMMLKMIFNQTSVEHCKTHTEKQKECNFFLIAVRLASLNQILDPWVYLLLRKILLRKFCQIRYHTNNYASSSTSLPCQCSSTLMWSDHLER
method: [3H]-PGE2 binding assay (EP3 competition binding)
experimental-setup: read-out: [3H]-PGE2 Binding Ki
pKi: −log10 of the molar value.
Lab note: anything with pKi at or over 7 counts as fulfilled; the rest go in not fulfilled.

Use the examples below as a reference point.
1. CO/N=C1\NC(=O)C(c2ccc(-c3ccc4cccc(F)c4c3)[nH]c2=O)(C(C)C)N1 (stereo not shown) [compound 237] = fulfilled
2. CC(C)(CC1OC(=O)NC1=O)c1ccc(-c2ccc3cccc(F)c3c2)[nH]c1=O (stereo not shown) [compound 1] = fulfilled

(Q) Entry CC(C)C(C(=O)NCCN(C)C)c1ccc(-c2ccc3ncsc3c2)[nH]c1=O (stereo not shown) [compound 246] : is its pKi no less than 7?
(A) not fulfilled

(Q) Further, for CC(C)C1(c2ccc(-c3ccc4cccc(F)c4c3)[nH]c2=O)N=C(NC#N)NC1=O (stereo not shown) [compound 236] ?
(A) fulfilled

(Q) Further, for CCC(CC)(c1ncc[nH]1)c1ccc(-c2ccc3cc(F)cc(F)c3c2)[nH]c1=O [compound 50] ?
(A) not fulfilled

(Q) Further, for CC(C)C(C(=O)NCCN(C)C)c1ccc(-c2ccc3c(c2)OCCN3C)[nH]c1=O (stereo not shown) [compound 244] ?
(A) not fulfilled

(Q) Further, for CC(C)C(CC(=O)Nc1ncc[nH]1)c1ccc(-c2ccc3cccc(F)c3c2)[nH]c1=O (stereo not shown) [compound 261] ?
(A) fulfilled

(Q) Further, for O=c1[nH]c(-c2ccc3ccccc3c2)ccc1C1CCOCC1 [compound 192] ?
(A) fulfilled

---

measurement-target: EP3 receptor (Homo sapiens, UniProt P43115)
Construct: purchased Millipore HTS092M
Sequence (P43115 1-390): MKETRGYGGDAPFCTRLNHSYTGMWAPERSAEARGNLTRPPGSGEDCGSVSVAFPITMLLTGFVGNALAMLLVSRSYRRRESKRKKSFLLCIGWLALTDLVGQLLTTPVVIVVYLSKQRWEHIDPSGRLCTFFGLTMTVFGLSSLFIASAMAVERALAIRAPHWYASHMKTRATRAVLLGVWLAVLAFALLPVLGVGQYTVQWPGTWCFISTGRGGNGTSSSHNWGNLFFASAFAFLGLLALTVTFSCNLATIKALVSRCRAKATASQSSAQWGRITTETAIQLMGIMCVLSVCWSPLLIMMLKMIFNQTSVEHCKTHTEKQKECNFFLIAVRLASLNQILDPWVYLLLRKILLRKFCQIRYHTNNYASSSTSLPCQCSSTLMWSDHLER
method: CHO cell cAMP assay (forskolin and sulprostone stimulated, HTRF)
Assay type: cell-based
experimental-setup: CHO cells; sulprostone 700 nM (EC80) and FSK 2 μM (EC70), 37° C. for 30 minutes; read-out: CHO_cAMP IC50
Recorded measurements of pIC50, one per entry
// returns pIC50 (minus log10 of molar concentration), number only

1) CC(C)C(C(=O)NCCOCCOCCN(C)C)c1ccc(-c2ccc3cccc(F)c3c2)[nH]c1=O (stereo not shown) [compound 229] = 6.85

Now consider a different molecule.
(Q) Provide value of pIC50 for this record tested with EP3 receptor (Homo sapiens, UniProt P43115): CCn1ncc2c(F)cc(-c3ccc(C(CN4CCN(S(C)(=O)=O)CC4)C(C)C)c(=O)[nH]3)cc21 (stereo not shown) [Compound #109]
(A) 6.94

---

measurement-target: UniProt P43115
Sequence (P43115 1-390): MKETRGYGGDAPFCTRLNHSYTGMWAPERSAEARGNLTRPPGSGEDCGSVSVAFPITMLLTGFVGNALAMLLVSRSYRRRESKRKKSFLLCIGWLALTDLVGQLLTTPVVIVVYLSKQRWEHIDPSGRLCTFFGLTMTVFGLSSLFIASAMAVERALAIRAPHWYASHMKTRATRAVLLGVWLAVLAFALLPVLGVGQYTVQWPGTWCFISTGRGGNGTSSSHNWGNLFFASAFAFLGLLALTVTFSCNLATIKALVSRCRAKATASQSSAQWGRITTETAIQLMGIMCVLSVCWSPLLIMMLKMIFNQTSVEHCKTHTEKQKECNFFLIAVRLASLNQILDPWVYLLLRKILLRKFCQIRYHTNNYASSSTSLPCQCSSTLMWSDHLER
method: CHO cell cAMP assay (forskolin and sulprostone stimulated, HTRF)
experimental-setup: CHO cells; sulprostone 700 nM (EC80) and FSK 2 μM (EC70), 37° C. for 30 minutes; read-out: CHO_cAMP IC50
Recorded measurements of IC50, one per entry
Respond numerically; units are nM and should not be typed.

1) CC1(c2ccc(-c3ccc4ccccc4c3)[nH]c2=O)N=CNC1=O (stereo not shown) = 4270
2) CCn1ncc2c(F)cc(-c3ccc(C(C(C)C)N4CCS(=O)(=O)CC4)c(=O)[nH]3)cc21 (stereo not shown) = 130
3) CC1=NC(C)(c2ccc(-c3ccc4ccccc4c3)[nH]c2=O)C(=O)N1 (stereo not shown) = 3580
4) CC(C)C(NC(=O)NCCN(C)C)c1ccc(-c2ccc3cccc(F)c3c2)[nH]c1=O (stereo not shown) = 736
5) CC(C)C(/C=C1\OC(=O)NC1=O)c1ccc(-c2ccc3cccc(C(F)(F)F)c3c2)[nH]c1=O (stereo not shown) = 734
6) CC(C)C(C(=O)NC1CN(C)C1)c1ccc(-c2ccc3cccc(F)c3c2)[nH]c1=O (stereo not shown) = 638

(Q) Can you look up the measured IC50 of CC(C)C(F)(C(=O)NS(=O)(=O)c1cc(F)cc(F)c1)c1ccc(-c2ccc3cccc(F)c3c2)[nH]c1=O (stereo not shown) for me?
(A) 1300

---

measurement-target: EP3 receptor (Homo sapiens)
Construct: purchased Millipore HTS092M
method: [3H]-PGE2 binding assay (EP3 competition binding)
experimental-setup: read-out: [3H]-PGE2 Binding Ki
Recorded measurements of Ki, one per entry
Respond numerically; units are nM and should not be typed.

1) CC(C)C(CC(N)=O)c1ccc(-c2ccc3ccccc3c2)[nH]c1=O (stereo not drawn) [compound 249] = 5
2) CCn1ncc2c(F)cc(-c3ccc(C4(O)CN(S(=O)(=O)C(C)C)C4)c(=O)[nH]3)cc21 [compound 298] = 979

Now consider a different molecule.
(Q) Can you look up the measured Ki of CCn1ncc2c(F)cc(-c3ccc(C(CC)(CC)c4nnc(C)o4)c(=O)[nH]3)cc21 [Compound #271] for me?
(A) 6

---

Recorded measurements of pKi, one per entry
measurement-target: EP3 receptor (Homo sapiens)
Construct: purchased Millipore HTS092M
method: [3H]-PGE2 binding assay (EP3 competition binding)
experimental-setup: read-out: [3H]-PGE2 Binding Ki
// returns pKi (minus log10 of molar concentration), number only

1. CC(C)C(C)(C(N)=O)c1ccc(-c2ccc3ccccc3c2)[nH]c1=O (stereo not shown) [compound 232] = 6.90
2. CCn1ncc2c(C)cc(-c3ccc(C(/C=C4\OC(=O)NC4=O)C(C)C)c(=O)[nH]3)cc21 (stereo not shown) [compound 106] = 7.30
3. CCC(/C=C1\OC(=O)NC1=O)(CC)c1ccc(-c2ccc3cccc(C(F)(F)F)c3c2)[nH]c1=O [compound 23] = 6.64

Now consider a different compound.
(Q) Can you look up the measured pKi of CC(C)C(Cc1ccc(-c2ccc3cccc(F)c3c2)[nH]c1=O)c1nnc[nH]1 (stereo not shown) [compound 309] for me?
(A) 7.92

---

measurement-target: EP3 receptor (Homo sapiens)
Construct: purchased Millipore HTS092M
method: [3H]-PGE2 binding assay (EP3 competition binding)
experimental-setup: read-out: [3H]-PGE2 Binding Ki
Recorded measurements of pKi, one per entry
// returns pKi (minus log10 of molar concentration), number only

Consider the reported pKi for these compounds:
1) CC(C)c1cccc2ccc(-c3ccc(C(/C=C4\OC(=O)NC4=O)C(C)C)c(=O)[nH]3)cc12 (centres unmarked) [compound 135] = 7.07
2) CCn1cc2c(C)cc(-c3ccc(C(CC4OC(=O)NC4=O)C(C)C)c(=O)[nH]3)cc2n1 (centres unmarked) [compound 86] = 6.94

(Q) Can you look up the measured pKi of CC(C)C(Cc1ccc(-c2ccc3cccc(F)c3c2)[nH]c1=O)c1nnn[nH]1 (centres unmarked) [compound 270] for me?
(A) 6.79

(Q) Further, for O=C1NC(=O)/C(=C/C(c2ccc(-c3ccc4cccc(F)c4c3)[nH]c2=O)C2CCCCC2)O1 (centres unmarked) [compound 134] ?
(A) 8.40

(Q) Further, for CC(C)C(CC(=O)Nc1nccs1)c1ccc(-c2ccc3cccc(F)c3c2)[nH]c1=O (centres unmarked) [compound 254] ?
(A) 6.46

(Q) Further, for CCn1ncc2c(F)cc(-c3ccc(C(CC)(CC)c4ccon4)c(=O)[nH]3)cc21 [Compound #29] ?
(A) 8.52

(Q) Further, for O=C1NC(=O)C2(CCC(c3ccc(-c4ccc5ccccc5c4)[nH]c3=O)CC2)N1 (centres unmarked) [compound 203] ?
(A) 6.97

(Q) Further, for CCn1ncc2c(F)cc(-c3ccc(C4CCN(S(=O)(=O)C(C)C)C4)c(=O)[nH]3)cc21 (centres unmarked) [compound 213] ?
(A) 8.15

(Q) Further, for CC1(c2ccc(-c3ccc4ccccc4c3)[nH]c2=O)C(=O)Nc2nccn21 (centres unmarked) [compound 153] ?
(A) 7.37
